- Tested on: RPMI-8226
- METHOD NOTES: NCI tumour cell line growth inhibition, 48 h
Active and inactive are the calls of the source. No stated cut-off is given here; in the data, active = GI50 up to about 1.1 µM and inactive = higher. Where a SMILES comes first, the peptide text is derived from it. [ ]: non-standard residue; d: D form. Aoe = N[C@@H](CCCCCC(=O)[C@@H]1CO1)C(=O)O
Choose one outcome from this list and give only that: active, inactive

## Input Hi team, can someone confirm the assay call for COc1ccc2c3c([nH]c2c1[N+](=O)[O-])C(C)N(C)CC3 (stereo unspecified) ?
## Output inactive

## Input How about `CCOC(=O)Cn1c2ccc(Br)cc2c2nc3ccccc3nc21` ?
## Output inactive

## Input How about `C[n+]1c2ccccc2c(C(=O)Nc2ccc(S(=O)(=O)N=C(N)N)cc2)c2ccccc21` ?
## Output inactive

## Input How about `C/C=C(/C)C(=O)O[C@@H]1c2c(C)coc2C[C@H]2CC[C@H](O)[C@H](C)[C@]21C` ?
## Output inactive

## Input How about `Nn1c(-c2ccccc2Cl)nc2ccccc2c1=O` ?
## Output inactive

## Input How about N#CC1=C(N)N(/N=C/c2ccccc2)C(c2ccccc2)C1(C#N)C#N (stereo unspecified) ?
## Output inactive

## Input How about OC1CCCC1C(O)(C(F)(F)F)C(F)(F)F (stereo unspecified) ?
## Output inactive

## Input How about `CCN(CCO)CCNc1ccc(C)c2sc3ccccc3c(=O)c12` ?
## Output inactive

## Input How about `COc1nc2[nH]ccc2c(=O)n1C` ?
## Output inactive

## Input How about CCOC(=O)CCC(C(=O)OCC)n1nnc2ccc(Nc3c(C)[n+]([O-])c4cc(F)c(OCC)cc4[n+]3[O-])cc21 (stereo unspecified) ?
## Output inactive

## Input How about `c1ccc(COc2ccc(CC3SCCCS3)cc2)cc1` ?
## Output inactive

## Input How about `CCCCCCCCCc1cccc(N2C(N)=NC(N)=NC2(C)C)c1` ?
## Output active

## Input How about O=c1[nH]c(=O)n(C2OC(CO)C(O)C2O)cc1/N=N/NCc1ccccc1 (stereo unspecified) ?
## Output inactive

## Input How about O=C1N[C@@H](Cc2ccccc2)C(=O)N2CCC[C@@H]2C(=O)N[C@@H](CCCCCC(=O)[C@@H]2CO2)C(=O)N[C@H]1Cc1ccccc1 [TRAPOXIN B] (cyclo(FF[dP][Aoe])) ?
## Output active

## Input How about `N#Cc1cc2c(cc1Cl)Sc1nnc(Nc3ccccc3)n1S2(=O)=O` ?
## Output active

## Input How about CN1c2ccccc2C2c3c(O)ccc(O)c3C=C([N+](=O)[O-])C21 (stereo unspecified) ?
## Output active

## Input How about `COC(=O)c1n[nH]c(C)c1/N=N/N(C)CCC#N` ?
## Output inactive

## Input How about `ClCCCCCc1c2nc(c(CCCCCCl)c3ccc([nH]3)c(CCCCCCl)c3nc(c(CCCCCCl)c4ccc1[nH]4)C=C3)C=C2` ?
## Output inactive

## Input How about c1ccc2c(c1)SCCC2NC1=NCCO1 (stereo unspecified) ?
## Output inactive

## Input How about `CC(C)=CCC[C@@H](C)C1=C(O)C(=O)C(C)=C(Nc2ccccc2F)C1=O` ?
## Output inactive

## Input How about CC1=C(O)C(=O)C2C(=O)C1C1Cc3ccccc3C21 (stereo unspecified) ?
## Output inactive

###

- Test system: IGROV-1
- METHOD NOTES: NCI tumour cell line growth inhibition, 48 h
Activity calls are given as the source filed them. No stated cut-off is given here; in the data, active = GI50 up to about 1.1 µM and inactive = higher.
Consider the following compounds; for each one, report its GI50.

## Input Which GI50 reading was recorded for the compound `N=C(c1ccc(-c2cn3cc(C(=N)N4CCCC4)ccc3n2)cc1)N1CCCC1` ?
## Output > 100 µM (inactive)

## Input How about `CC(C)=CCC/C(C)=C/Cc1c(O)ccc2c1[nH]c1cc(O)c(C)cc12` ?
## Output 14.7 µM (inactive)

## Input How about `O=C(CSc1nnc[nH]1)C[P+](c1ccccc1)(c1ccccc1)c1ccccc1` ?
## Output > 100 µM (inactive)

## Input How about `CC(=O)CCC[C@H](C)[C@@H](O)[C@@H]1O[C@H]([C@@]2(C)CCC(=O)O2)C[C@H]1C(=O)O` ?
## Output > 100 µM (inactive)

###

- System: Malme-3M
- METHOD NOTES: NCI tumour cell line growth inhibition, 48 h
Activity calls are given as the source filed them. Rule as the data show it: active = GI50 up to about 1.1 µM and inactive = higher. Where a SMILES comes first, the peptide text is derived from it. [ ]: non-standard residue; d: D form. Aoe = N[C@@H](CCCCCC(=O)[C@@H]1CO1)C(=O)O
Consider the following molecules; for each one, report its GI50.

## Input Which GI50 reading was recorded for the molecule `CC1=C(c2cc(C(=O)Nc3ccc(Cl)c(Cl)c3)nc(N)n2)Sc2ccccc2N1` ?
## Output > 100 µM (inactive)

## Input How about `Cc1cc(NC(=O)C(=O)Cc2nc3ccccc3s2)ccc1Cl` ?
## Output > 100 µM (inactive)

## Input How about CC1=C2C(O)C(C(C)CO)C(O)CC2(C)C(O)CC1 (stereo unspecified) ?
## Output > 100 µM (inactive)

## Input How about CC(C)c1ccc(O)c(=O)cc1 [GAMMA-THUJAPLICIN] ?
## Output 15.3 µM (inactive)

## Input How about `Cc1ccc(-n2cc([Si](C)(C)C)nn2)s1` ?
## Output > 100 µM (inactive)

## Input How about `O=c1[nH]/c(=C/c2ccc3c(c2)OCO3)c(=O)[nH]/c1=C/c1ccc2c(c1)OCO2` ?
## Output > 10 µM (inactive)

## Input How about `COc1ccc2c(CC(=O)O)cc(=O)oc2c1` ?
## Output 54.8 µM (inactive)

## Input How about `OCCNC1=Nc2ccc(Cl)cc2C(=S)N2CSC[C@@H]12` ?
## Output > 100 µM (inactive)

## Input How about `Clc1cccc(-c2sc(-c3ccsc3)cc2Cc2ccsc2)c1` ?
## Output > 10 µM (inactive)

## Input How about N#Cc1ccccc1NC(=O)C(O)C(O)C(O)C(O)C=O (stereo unspecified) ?
## Output > 100 µM (inactive)

## Input How about `OCCCCCNc1c2ccccc2nc2ccccc12` ?
## Output 1.9 µM (inactive)

## Input How about CCOC(=O)c1cc(C2CCN(Cc3ccccc3)C2=O)c(C(=O)/C=C(/C)N)[nH]1 (stereo unspecified) ?
## Output > 100 µM (inactive)

## Input How about `COC(=O)c1ccccc1NCc1cc(O)ccc1O` ?
## Output 21.4 µM (inactive)

## Input How about `Cc1ccc(/C=C2\Cc3cc(C)c(C)cc3C2=O)c(C(=O)O)c1` ?
## Output 42.1 µM (inactive)

## Input How about `CC(C)=CCC[C@@H](C)C1=C(O)C(=O)C(C)=C(Nc2ccccc2F)C1=O` ?
## Output 10.2 µM (inactive)

## Input How about `O=C1c2ccccc2-c2c1c1ccccc1c(=O)n2CCO` ?
## Output 26.5 µM (inactive)

## Input How about `CC(=O)Oc1c(C)c(-c2ccccc2)c(C)c(-c2ccccc2)c1C(=S)c1ccccc1` ?
## Output > 100 µM (inactive)

## Input How about COc1nc(NC2OCC(OC(C)=O)C(OC(C)=O)C2OC(C)=O)c(-c2csc(N)n2)c(=O)n1C (stereo unspecified) ?
## Output > 100 µM (inactive)

## Input How about CC(=O)NC1COC(COC(=O)CCCCCCCCCCNC(=O)c2ccc([N+](=O)[O-])c3c(=O)c4ccccc4[nH]c23)C(O)C1OC(C)C(=O)NC(C(=O)NC(CCC(N)=O)C(=O)OCc1ccccc1)C(C)C (stereo unspecified) ?
## Output 38.6 µM (inactive)

## Input How about O=C1N[C@@H](Cc2ccccc2)C(=O)N2CCC[C@@H]2C(=O)N[C@@H](CCCCCC(=O)[C@@H]2CO2)C(=O)N[C@H]1Cc1ccccc1 [TRAPOXIN B] (cyclo(FF[dP][Aoe])) ?
## Output < 0.000212 µM (active)

## Input How about `CC1(C)CCC2=C(O1)c1ccccc1/C(=N/c1ccc([N+](=O)[O-])cc1)C2=O` ?
## Output 16 µM (inactive)

## Input How about COc1cc(C2c3cc(O)c(OC)cc3C3OCC2C3CO)ccc1O (stereo unspecified) ?
## Output > 100 µM (inactive)

## Input How about OC(C1CCC=NN1C(O)(C(F)(F)F)C(F)(F)F)(C(F)(F)F)C(F)(F)F (stereo unspecified) ?
## Output > 10 µM (inactive)

## Input How about `CCCNC(=O)c1cc2ccccc2cc1C(=O)OC` ?
## Output > 100 µM (inactive)

## Input How about O=C(O)CCCCCNC(=O)CCC(CN(CC(=O)OCc1ccccc1)CC(=O)OCc1ccccc1)N(CC(=O)OCc1ccccc1)CC(=O)OCc1ccccc1 (stereo unspecified) ?
## Output 19.2 µM (inactive)

## Input How about `COc1cc2c(cc1OC)[Se]c1cc(OC)c(OC)cc1[Se]2` ?
## Output > 10 µM (inactive)

## Input How about `COc1c(C)c(C/C=C(\C)CCCCO[Si](c2ccccc2)(c2ccccc2)C(C)(C)C)c(OC)c(OC)c1OC` ?
## Output > 100 µM (inactive)

## Input How about CC1(C)CCC(C)(C)c2cc(NC(=O)c3ccc(C(=O)O)cc3)ccc21 [TAMIBAROTENE] ?
## Output 17.9 µM (inactive)

## Input How about CN1C/C(=C\c2cccs2)C2=NC(=S)NC(c3cccs3)C2C1 (stereo unspecified) ?
## Output 16 µM (inactive)

## Input How about `Cc1ccc(C(=O)CC(Cl)=C(Cl)Cl)cc1` ?
## Output > 100 µM (inactive)

## Input How about NC(CO)c1ccccc1 (stereo unspecified) ?
## Output > 100 µM (inactive)

## Input How about CCOC(=O)CC1CCN(C(=O)c2ccccc2)C2Cc3c([nH]c4ccccc34)C12C[N+](=O)[O-] (stereo unspecified) ?
## Output > 100 µM (inactive)

## Input How about `c1ccc(CNCCCCNCCCNCc2ccccc2)cc1` ?
## Output 15.5 µM (inactive)

## Input How about `CC(=O)Oc1ccc(C)c2c1[C@H]1CC[C@]3(C)[C@@H](OC(C)=O)CC[C@H]3[C@@H]1CC2` ?
## Output 15.7 µM (inactive)

## Input How about `CN(C)C(=O)c1nnsc1NN=O` ?
## Output > 100 µM (inactive)

## Input How about `C/C=C(/C)C(=O)O[C@@H]1c2c(C)coc2C[C@H]2CC[C@H](O)[C@H](C)[C@]21C` ?
## Output 26.9 µM (inactive)

## Input How about `O=C(CSC1=NCCN1)c1ccccc1` ?
## Output > 100 µM (inactive)

## Input How about `O=C(CSc1nc(O)nc2[nH]cnc12)Nc1ccccc1` ?
## Output > 100 µM (inactive)

## Input How about CC(=O)OC1COC(Nc2nc(N)n(C)c(=O)c2N=O)C(OC(C)=O)C1OC(C)=O (stereo unspecified) ?
## Output > 10 µM (inactive)

## Input How about `CSC(SC)=C1CC(=O)Nc2ccccc2C1=O` ?
## Output 37.4 µM (inactive)

## Input How about O=C1C2CCN(CC2)C1CN1CCOCC1 (stereo unspecified) ?
## Output 1.8 µM (inactive)
